The measurements presented in this section are drawn from PubChem BioAssay AID743417.

AC50 values for the compounds below.
- Test system: Clone20 osteoblast Shn3 3'UTR firefly luciferase, 24 h
- assay.info: Shn3 3'UTR reporter inhibitors, dose response, cell-based, Clone20 osteoblasts, luminescence, dry powder, set 2 (AID 743417)
Results filed as inconclusive are left out.

Would you please look over these solved cases?
COc1ccc(OCC(O)CNCCOc2ccccc2OC)c(C(C)(C)C)c1 (stereo not given) = 11.6 µM
COc1ccc(-c2nc(CN3CCN(c4ncnc5ccccc45)CC3)c(C)o2)c(OC)c1 = 6.38 µM
Cn1c(/C=C/c2ccc([N+](=O)[O-])o2)nc2ccccc2c1=O = 2.37 µM
C=C1C(=O)[C@]23C[C@H]1CCC2[C@@]1(C)C(C[C@@H]3O)[C@](C)(C(=O)OC)CC[C@@H]1OC(C)=O (stereo not given in full) = 2.14 µM

IN: I would be grateful if you could share the reported AC50 for Cc1oc(-c2ccc(Cl)cc2)nc1CS(=O)CC(=O)NCCCN1CCN(Cc2ccccc2)CC1 (stereo not given) .
OUT: 2.52 µM

* * *

AC50 values for the compounds below.
- Test system: Clone20 osteoblast Shn3 3'UTR firefly luciferase, 24 h
- assay.info: Shn3 3'UTR reporter inhibitors, dose response, cell-based, Clone20 osteoblasts, luminescence, dry powder, set 2 (AID 743417)
Results filed as inconclusive are left out. Activity calls are given as the source filed them.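 Rule for the calls: active = compounds lowering the luciferase signal with a fitted half-maximal dose at most twice their top valid dose (cut at about 30 µM in these data); inconclusive = flat fits with moderate signal loss, or poor fits; inactive = the rest.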

Would you please look over these solved cases?
O=C(Nc1ccc(N2CCOCC2)cc1)c1ccc(Cl)c(S(=O)(=O)N2CCCCC2)c1 = 810 nM
Nc1nc(N)c2cc(CNc3ccc(Cl)c(Cl)c3)ccc2n1 = 956 nM
COc1cc2c(cc1OC)C1C(=O)c3ccc4c(c3OC1CO2)CC(C(C)C)O4 (configuration not stated) = < 260 nM
CCCCn1c(CN2CCN(c3ccc(F)cc3)CC2)nc2c1c(=O)n(C)c(=O)n2C = 2730 nM
CCC(NC(=O)Nc1nnc(C(F)(F)F)s1)(C(F)(F)F)C(F)(F)F = 4150 nM

IN: I would be grateful if you could share the reported AC50 for Cc1onc(-c2ccccc2Cl)c1C(=O)N1CCC(Cc2ccccc2)CC1 .
OUT: 2290 nM

IN: I would be grateful if you could share the reported AC50 for c1ccc(-c2ccc(-c3nc(-c4ccccn4)no3)cc2)cc1 .
OUT: 3750 nM

IN: I would be grateful if you could share the reported AC50 for CN1CCN(Cc2nc3ccccc3c(=O)n2Cc2nc(-c3ccc4ccccc4c3)cs2)CC1 .
OUT: 11000 nM

IN: I would be grateful if you could share the reported AC50 for CCC1CSC(Nc2ccc(C(=O)/C=C/c3ccc(OC)c(OC)c3)cc2)=N1 (configuration not stated) .
OUT: 4470 nM

IN: I would be grateful if you could share the reported AC50 for O=C1NC2C(=CC(O)C(O)C2O)c2cc3c(cc21)OCO3 (configuration not stated) .
OUT: 2220 nM

IN: I would be grateful if you could share the reported AC50 for Cc1ccc(C)c(S(=O)(=O)Nc2ccc(-n3cnnn3)cc2)c1 .
OUT: > 70000 nM (inactive)

* * *

AC50 values for the molecules below.
- Test system: Clone20 osteoblast Shn3 3'UTR firefly luciferase, 24 h
- assay.info: Shn3 3'UTR reporter inhibitors, dose response, cell-based, Clone20 osteoblasts, luminescence, dry powder, set 2 (AID 743417)
Inconclusive results are not listed.

Would you please look over these solved cases?
CCCc1nc([N+](=O)[O-])c(S(=O)(=O)c2ccccc2)n1CC(C)C = 7.39 µM
FC(F)(F)c1nnc(-c2ccccc2)nc1Sc1ccc(Cl)cc1 = 14.7 µM
O=C(c1ccc(Cl)cc1)C1CCCN(Cc2cccc3ncccc23)C1 (centres undefined) = 4.52 µM
Cc1cccc(CCN2C(N(C)C)=NC[C@@H]2CC(C)C)c1 = 1.45 µM

IN: For the record CN(C)CCNC(=O)c1ccc(Cl)c2cc3ccccc3nc12 , what value of AC50 is listed for Clone20 osteoblast Shn3 3'UTR firefly luciferase, 24 h?
OUT: 9.85 µM

IN: For the record COc1ccccc1N1CCN(c2ncc(C(=O)N3CCN(c4cccc(Cl)c4)CC3)c3ccccc23)CC1 , what value of AC50 is listed for Clone20 osteoblast Shn3 3'UTR firefly luciferase, 24 h?
OUT: 0.572 µM

IN: For the record Cc1nn(Cc2ccc(Cl)cc2)c(C)c1NC(=O)c1cc(C(C)C)on1 , what value of AC50 is listed for Clone20 osteoblast Shn3 3'UTR firefly luciferase, 24 h?
OUT: 6.2 µM

IN: For the record Cc1csc(NC(=O)Cc2nn(C)c(=O)c3ccccc23)n1 , what value of AC50 is listed for Clone20 osteoblast Shn3 3'UTR firefly luciferase, 24 h?
OUT: 6.82 µM

IN: For the record CC/C(=C/c1ccccc1)c1cccc2[nH]c3c(OC)cccc3c12 , what value of AC50 is listed for Clone20 osteoblast Shn3 3'UTR firefly luciferase, 24 h?
OUT: 32.8 µM
